Source of measurements: patent US20240116985A1

- SYSTEM_TESTED: T1, full-length beta-Catenin (Uniprot ID P35222) (Homo sapiens (Human), UniProt P35222 2-781)
- T1 construct: full-length; also called bCat; B-Catenin
- T1 sequence: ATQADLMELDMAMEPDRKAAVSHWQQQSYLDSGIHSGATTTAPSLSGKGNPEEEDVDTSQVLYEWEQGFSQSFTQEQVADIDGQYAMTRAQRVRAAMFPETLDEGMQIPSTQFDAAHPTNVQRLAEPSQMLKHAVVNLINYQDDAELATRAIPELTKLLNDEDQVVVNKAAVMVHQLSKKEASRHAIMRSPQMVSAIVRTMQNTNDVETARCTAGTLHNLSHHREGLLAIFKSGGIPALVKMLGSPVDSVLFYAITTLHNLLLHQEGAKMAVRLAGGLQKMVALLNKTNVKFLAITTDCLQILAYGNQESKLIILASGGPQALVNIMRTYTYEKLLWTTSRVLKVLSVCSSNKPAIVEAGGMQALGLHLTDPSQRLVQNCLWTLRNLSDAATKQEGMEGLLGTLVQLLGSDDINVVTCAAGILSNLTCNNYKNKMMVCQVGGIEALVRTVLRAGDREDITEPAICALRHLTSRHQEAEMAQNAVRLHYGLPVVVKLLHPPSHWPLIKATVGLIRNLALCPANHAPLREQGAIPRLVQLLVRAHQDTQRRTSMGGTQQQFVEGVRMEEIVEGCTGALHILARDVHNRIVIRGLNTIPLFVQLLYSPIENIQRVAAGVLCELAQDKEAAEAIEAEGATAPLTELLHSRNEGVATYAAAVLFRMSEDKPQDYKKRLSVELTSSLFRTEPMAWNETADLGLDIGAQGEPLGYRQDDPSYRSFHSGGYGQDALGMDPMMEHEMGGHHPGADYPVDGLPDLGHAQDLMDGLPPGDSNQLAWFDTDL
- EXPERIMENT_SUMMARY: fluorescence polarization competition; displaces 5FAM-TCF4(10-53) from full-length beta-catenin
Starred links: 1 amine or outer side, 2 acyl side, 3 side chain; linkers in the order of their positions; H or OH if unused. Positions of bridges follow the written chain, without caps; N, C: chain ends. Non-standard residues stand in square brackets, D forms with d. Primed or numbered codes have the meaning given here. B5(23) = 2-amino-2-(pent-4-en-1-yl)hept-6-enoic acid (2,2-bis(4-pentenyl)glycine), stitching residue, C=CCCCC(CCCC=C)(N[*:1])C(=O)[*:2]; Bta = N[C@@H](Cc1csc2ccccc12)C(=O)O; αAllylPro = C=CC[C@@]1(C(=O)O)CCCN1; S8 = C=CCCCCCC[C@](C)(N)C(=O)O
Here the recorded IC50 is given for each entry.
Write the value in nM as a bare number.

Look over these answered cases.
BINDER	IC50 [nM]
XDQXDEAAFQXFXQ (not fully specified; N-terminal Ac; PL3 at 1, B5 at 4, S8 at 11 (staples PL3-B5 and B5-S8 by olefin metathesis); BztA at 13; C-terminal NH2, Stapled peptide composition; Same description as I-1539; later eluting HPLC peak (staple isomer); also called Ac-PL3-Asp-Gln-B5-Asp-Glu-Ala-Ala-Phe-Gln-S8-Phe-BztA-Gln-NH2) [I-1540]	17
XDNXDEAAFQXFXQ (not fully specified; N-terminal Ac; PL3 at 1, B5 at 4, S8 at 11 (staples PL3-B5 and B5-S8 by olefin metathesis); BztA at 13; C-terminal NH2, Stapled peptide composition; Same description as I-1531; separate, later eluting HPLC peak (staple isomer); also called Ac-PL3-Asp-Asn-B5-Asp-Glu-Ala-Ala-Phe-Gln-S8-Phe-BztA-Gln-NH2) [I-1532]	49
XDSXDEAAFQXFXQ (not fully specified; N-terminal Ac; PL3 at 1, B5 at 4, S8 at 11 (staples PL3-B5 and B5-S8 by olefin metathesis); Hse at 3; BztA at 13; C-terminal NH2, Stapled peptide composition; earlier eluting HPLC peak (staple isomer); also called Ac-PL3-Asp-Hse-B5-Asp-Glu-Ala-Ala-Phe-Gln-S8-Phe-BztA-Gln-NH2) [I-1544]	61

Now for another entry.
Inquiry: Give the measured IC50 of Ac-[αAllylPro]DK[B5(23)]DEAAFQ[S8]F[Bta]Q-NH2 (staple 1-4, 4-11, Stapled peptide composition; also called Ac-PL3-Asp-Lys-B5-Asp-Glu-Ala-Ala-Phe-Gln-S8-Phe-BztA-Gln-NH2) [I-1552] .
Reply text: 56
